ASSAY TEXT: Metabolic stability in human liver microsomes assessed as compound remaining after 30 mins
Type: ADME, Microsome
PROTOCOL CONDITIONS: read-out: Stability
QUANTITY: remaining at 0.5 h (%)

Please review the following examples before continuing.
SMILES STRING	remaining at 0.5 h, %
COc1cc(NCc2cc3cc(Cl)c(OCCN4CCOCC4)cc3[nH]c2=O)ccc1C#N	1.1
CCOc1cc(NCc2cc3cc(Cl)ccc3[nH]c2=O)ccc1C#N	78
COc1cc(NCc2cc3cc(Cl)c(OC[C@@H]4CCCN4C)cc3[nH]c2=O)ccc1C#N	6.3
COc1cc(NCc2cc3cc(Cl)ccc3[nH]c2=O)ccc1C#N	81
N#Cc1ccc(NCc2cc3cc(Cl)ccc3[nH]c2=O)cc1O	75

(I) O=c1[nH]c2ccc(Cl)cc2cc1CNc1ccc(-n2ccnc2)cc1
(II) N#Cc1ccc(NCc2cc3cc(Cl)ccc3[nH]c2=O)cc1
Request: Param metric = remaining at 0.5 h; output whichever of I , II has the minimum value. Respond using the label that marks the chosen record.
Result: II
